Where do the numbers come from? From ChEMBL document CHEMBL1122629.

Test system: Rattus norvegicus
Assay: In vivo anti-vasopressor activity in phenoxybenzamine-treated rats under urethane anesthesia is measured as effective dose
Format: functional
*1 amine or outer side, *2 acyl side, *3 side chain or, on linkers, in order; H or OH if unused. Where a SMILES comes first, the peptide text is derived from it. Bridges are numbered along the chain shown (N, C = ends). [ ]: non-standard residue; d: D form. X1 = O=C(CC1(S[*:2])CCCCC1)[*:1]; Orn = NCCC[C@H](N)C(=O)O
This listing pairs molecules with measured ED.
PROPERTY LABEL: ED (nmol/kg)

MOLECULE	READOUT NUMBER
CC[C@@H](C)[C@H]1NC(=O)CC2(CCCCC2)SSC[C@@H](C(=O)N2CCC[C@H]2C(=O)N[C@@H](CCCN=C(N)N)C(=O)NCC(N)=O)NC(=O)[C@H](CC(N)=O)NC(=O)[C@H](CC2CCCCC2)NC(=O)[C@H](Cc2ccccc2)NC1=O	19.1
NC(=O)CNC(=O)[C@H](CCCN=C(N)N)NC(=O)[C@@H]1CCCN1C(=O)[C@@H]1CSSC2(CCCCC2)CC(=O)N[C@H](Cc2ccccc2)C(=O)N[C@@H](Cc2ccccc2)C(=O)N[C@@H](CO)C(=O)N[C@@H](CC(N)=O)C(=O)N1	1.6
NCCC[C@@H]1NC(=O)[C@H](Cc2ccccc2)NC(=O)[C@@H](Cc2ccccc2)NC(=O)CC2(CCCCC2)SSC[C@@H](C(=O)N2CCC[C@H]2C(=O)N[C@@H](CCCN=C(N)N)C(=O)NCC(N)=O)NC(=O)[C@H](CC(N)=O)NC1=O ([dF]F[Orn]NCPRG-NH2; linker N-5 via X1)	1.9
CCC[C@@H]1NC(=O)[C@H](Cc2ccccc2)NC(=O)[C@@H]([C@H](C)CC)NC(=O)CC2(CCCCC2)SSC[C@@H](C(=O)N2CCC[C@H]2C(=O)N[C@@H](CCCN=C(N)N)C(=O)NCC(N)=O)NC(=O)[C@H](CC(N)=O)NC1=O	8.2

====

Organism: Rattus norvegicus
Assay: Anti-oxytocic activity on isolated rat uterus in presence of 0.5 mM of Mg2+. pA2 value is negative logarithm of effective dose (ED)
Format: functional
Details: read-out: pA2 (converted)
*1 amine or outer side, *2 acyl side, *3 side chain or, on linkers, in order; H or OH if unused. Where a SMILES comes first, the peptide text is derived from it. Bridges are numbered along the chain shown (N, C = ends). [ ]: non-standard residue; d: D form. X1 = O=C(CC1(S[*:2])CCCCC1)[*:1]; Orn = NCCC[C@H](N)C(=O)O
log10 Kb reference
PROPERTY LABEL: log10 Kb (log10 of the value in nM)

MOLECULE	log10 Kb
CC[C@@H]1NC(=O)[C@H](Cc2ccccc2)NC(=O)[C@@H]([C@H](C)CC)NC(=O)CC2(CCCCC2)SSC[C@@H](C(=O)N2CCC[C@H]2C(=O)N[C@@H](CCCN=C(N)N)C(=O)NCC(N)=O)NC(=O)[C@H](CC(N)=O)NC1=O	1.97
CC[C@@H](C)[C@H]1NC(=O)CC2(CCCCC2)SSC[C@@H](C(=O)N2CCC[C@H]2C(=O)N[C@@H](CCCN=C(N)N)C(=O)NCC(N)=O)NC(=O)[C@H](CC(N)=O)NC(=O)[C@H](Cc2ccccc2)NC(=O)[C@H](Cc2ccccc2)NC1=O	2.08
CC[C@@H](C)[C@H]1NC(=O)CC2(CCCCC2)SSC[C@@H](C(=O)N2CCC[C@H]2C(=O)N[C@@H](CCCN=C(N)N)C(=O)NCC(N)=O)NC(=O)[C@H](CC(N)=O)NC(=O)[C@H](CC2CCCCC2)NC(=O)[C@H](Cc2ccccc2)NC1=O	1.91
NCCC[C@@H]1NC(=O)[C@H](Cc2ccccc2)NC(=O)[C@@H](Cc2ccccc2)NC(=O)CC2(CCCCC2)SSC[C@@H](C(=O)N2CCC[C@H]2C(=O)N[C@@H](CCCN=C(N)N)C(=O)NCC(N)=O)NC(=O)[C@H](CC(N)=O)NC1=O ([dF]F[Orn]NCPRG-NH2; linker N-5 via X1)	1.30
CC[C@@H](C)[C@H]1NC(=O)CC2(CCCCC2)SSC[C@@H](C(=O)N2CCC[C@H]2C(=O)N[C@@H](CCCN=C(N)N)C(=O)NCC(N)=O)NC(=O)[C@H](CC(N)=O)NC(=O)[C@H](C)NC(=O)[C@H](Cc2ccccc2)NC1=O	1.53
CC[C@@H](C)[C@H]1NC(=O)CC2(CCCCC2)SSC[C@@H](C(=O)N2CCC[C@H]2C(=O)N[C@@H](CCCN=C(N)N)C(=O)NCC(N)=O)NC(=O)[C@H](CC(N)=O)NC(=O)[C@H](CCCCN)NC(=O)[C@H](Cc2ccccc2)NC1=O	2.40
CC[C@@H](C)[C@H]1NC(=O)CC2(CCCCC2)SSC[C@@H](C(=O)N2CCC[C@H]2C(=O)N[C@@H](CCCN=C(N)N)C(=O)NCC(N)=O)NC(=O)[C@H](CC(N)=O)NC(=O)[C@H](CCCN)NC(=O)[C@H](Cc2ccccc2)NC1=O	2.29
CC[C@@H](C)[C@H]1NC(=O)CC2(CCCCC2)SSC[C@@H](C(=O)N2CCC[C@H]2C(=O)N[C@@H](CCCN=C(N)N)C(=O)NCC(N)=O)NC(=O)[C@H](CC(N)=O)NC(=O)[C@H]([C@@H](C)O)NC(=O)[C@H](Cc2ccccc2)NC1=O	1.31
